System: MDR1
Test: in vitro
Conditions: dog, MDCK-MDR1, pH 7.4, MDCK-MDR1: Papp B-A (10^−6, cm/s)
// reported Papp B→A at 120 min, 5 μM per item
Expressed in ×10⁻⁶ cm/s, but write only the number.

Illustrative cases are given below, each with its answer.
{"compound": "COc1cc(-c2ccc(-c3cnc(N(C)[C@@H]4C[C@@]5(C)CC[C@](C)(N5)[C@@H]4F)cn3)c(O)c2)cnn1", "recorded_number": 39.6}
{"compound": "CN(c1cnc(-c2ccc(-c3cnn(C)c3)cc2O)cn1)[C@@H]1C[C@H]2CCC(N2)[C@@H]1F (single isomer, unassigned)", "recorded_number": 22}

# evaluate next
## Input Name the recorded Papp B→A at 120 min, 5 μM for O=c1cc(-c2cc(O)c(-c3cnc(N(C4CC4)[C@H]4C[C@@H]5CCC(N5)[C@H]4F)cn3)cc2F)ccn1CF (single isomer, unassigned) .
## Output 62
